src = patent US20220348595A1

Please go through the items and note down their IC50.
Biological target: ER (Homo sapiens, UniProt P03372)
Construct: endogenous in cells
Sequence (P03372 whole entry): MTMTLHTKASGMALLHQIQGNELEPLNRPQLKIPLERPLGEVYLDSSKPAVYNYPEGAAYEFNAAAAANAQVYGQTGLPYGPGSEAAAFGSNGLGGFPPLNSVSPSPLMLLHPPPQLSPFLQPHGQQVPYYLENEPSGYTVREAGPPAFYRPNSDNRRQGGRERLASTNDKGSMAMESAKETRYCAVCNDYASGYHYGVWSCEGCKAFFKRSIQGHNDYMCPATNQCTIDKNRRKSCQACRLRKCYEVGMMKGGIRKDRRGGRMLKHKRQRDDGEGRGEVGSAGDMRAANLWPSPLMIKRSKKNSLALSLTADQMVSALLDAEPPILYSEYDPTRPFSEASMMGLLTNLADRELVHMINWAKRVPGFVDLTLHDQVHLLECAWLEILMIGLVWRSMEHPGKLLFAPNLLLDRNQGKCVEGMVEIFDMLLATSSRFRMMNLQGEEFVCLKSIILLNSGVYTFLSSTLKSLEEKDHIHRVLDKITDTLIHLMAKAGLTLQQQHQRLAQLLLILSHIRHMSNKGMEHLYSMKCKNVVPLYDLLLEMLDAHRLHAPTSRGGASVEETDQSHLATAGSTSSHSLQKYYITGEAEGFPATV
Assay: ER antagonism (T47D ERE luciferase), T47d-kb-Luc cells
Details: read-out: IC50 (ER antagonistm)

// IC50 (ER (Homo sapiens, UniProt P03372)) for `CC/C(=C(\c1ccc(O)cc1)c1ccc(OCCN2CCN(C(=O)N3CCN(c4ccc5c(c4)CN([C@@H]4CCC(=O)NC4=O)C5=O)CC3)CC2)cc1)c1ccccc1` = < 10 nM

Record CC/C(=C(\c1ccc(B(O)O)cc1)c1ccc(N2CCC(CN3CCN(c4ccc5c(c4)C(=O)N(C4CCC(=O)NC4=O)C5)CC3)CC2)cc1)c1ccccc1 (centres unmarked) / ER (Homo sapiens, UniProt P03372), IC50 recorded as < 10 nM

The reported ER (Homo sapiens, UniProt P03372) IC50 of CC/C(=C(/c1ccc(B(O)O)cc1)c1ccc(N2CCC(CCN3CCN(c4ccc5c(c4)CN(C4CCC(=O)NC4=O)C5=O)CC3)CC2)cc1)c1ccccc1 (centres unmarked) is < 10 nM

Query `CC/C(=C(\c1ccc(O)cc1)c1ccc(N2CCN(C(=O)N3CCN(c4ccc5c(c4)CN([C@@H]4CCC(=O)NC4=O)C5=O)CC3)CC2)cc1)c1ccccc1` on ER (Homo sapiens, UniProt P03372); IC50 returned: < 10 nM

Item CC/C(=C(/c1ccc(B(O)O)cc1)c1ccc(N2CCN(CCC3CCN(c4ccc5c(c4)C(=O)N(C4CCC(=O)NC4=O)C5=O)CC3)CC2)cc1)c1ccccc1 (centres unmarked) was tested on ER (Homo sapiens, UniProt P03372); the reported IC50 is 10 to 50 nM

Result for CC/C(=C(\c1ccc(B(O)O)cc1)c1ccc(N2CCN(CCCN3CCN(c4ccc5c(c4)C(=O)N(C4CCC(=O)NC4=O)C5=O)CC3)CC2)cc1)c1ccccc1 (centres unmarked) , tested on ER (Homo sapiens, UniProt P03372), IC50: 10 to 50 nM

Reading of IC50 for CC/C(=C(\c1ccc(OCCN2CCC(N3CCN(c4ccc5c(c4)C(=O)N(C4CCC(=O)NC4=O)C5=O)CC3)CC2)cc1)c1ccc(B(O)O)cc1)c1ccccc1 (centres unmarked) with ER (Homo sapiens, UniProt P03372): > 50 nM

Here CC/C(=C(/c1ccc(OCCN2CCN(C(=O)N3CCC(CN4CCN(c5ccc6c(c5)CN(C5CCC(=O)NC5=O)C6=O)CC4)CC3)CC2)cc1)c1ccc(B(O)O)cc1)c1ccccc1 (centres unmarked) was tested on ER (Homo sapiens, UniProt P03372), and its IC50 came to < 10 nM

Entry CC/C(=C(/c1ccc(B(O)O)cc1)c1ccc(N2CCN(C(=O)N3CCC(N4CCN(c5ccc6c(c5)CN(C5CCC(=O)NC5=O)C6=O)CC4)CC3)CC2)cc1)c1ccccc1 (centres unmarked) under ER (Homo sapiens, UniProt P03372) had IC50 of < 10 nM

ER (Homo sapiens, UniProt P03372) IC50 of CC/C(=C(\c1ccc(B(O)O)cc1)c1ccc(N2CCN(C(=O)N3CCC(N4CCN(c5ccc6c(c5)CN(C5CCC(=O)NC5=O)C6=O)CC4)CC3)CC2)cc1)c1ccccc1 (centres unmarked) is < 10 nM

Bench note, ER (Homo sapiens, UniProt P03372): entry `CC/C(=C(/c1ccc(B(O)O)cc1)c1ccc(N2CCN(C(=O)N3CCN(c4ccc5c(c4)CN([C@@H]4CCC(=O)NC4=O)C5=O)CC3)CC2)cc1)c1ccccc1` , its IC50 = < 10 nM
